Target: T1, formyl peptide receptor like 1 (FPRL1) (human, UniProt P25090 1-351)
T1 sequence (looked up): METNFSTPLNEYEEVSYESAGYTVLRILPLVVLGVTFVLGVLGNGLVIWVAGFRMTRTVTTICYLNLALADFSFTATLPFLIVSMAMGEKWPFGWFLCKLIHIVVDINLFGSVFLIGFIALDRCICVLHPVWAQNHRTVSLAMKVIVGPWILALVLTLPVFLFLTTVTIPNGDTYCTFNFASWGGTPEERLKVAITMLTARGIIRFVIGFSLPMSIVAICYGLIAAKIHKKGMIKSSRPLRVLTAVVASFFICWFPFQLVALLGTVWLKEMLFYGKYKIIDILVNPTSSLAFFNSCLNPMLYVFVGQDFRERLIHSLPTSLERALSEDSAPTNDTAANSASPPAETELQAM
Experiment: cell-based or functional assay
PROPERTY: Induction of Calcium Flux in FPRL1 L1.2 Cells (IC 50)

{"columns": ["BINDER", "REPORTED"],
 "data": [
  ["MLWRRKIGPQMTLSHAAG [SHAAGtide (SEQ ID NO: 1)]", "150 nM"],
  ["MLWRRKIGPQM [SHAAGtide truncated variant CCXP8 (SEQ ID NO: 8)]", "45 nM"],
  ["MLWRRKIGPQMT [SHAAGtide truncated variant CCXP5 (SEQ ID NO: 5)]", "7.4 nM"],
  ["RRKIGPQMTLSHAAG [SHAAGtide truncated variant CCXP2 (SEQ ID NO: 2)]", "> 50000 nM"],
  ["MLWRRKIGPQMTLSHAAY [SHAAYtide (SEQ ID NO: 6)]", "38 nM"],
  ["CKβ8-1(25-116) (ligand, Human recombinant chemokine bought from R&D Systems; NH2-terminal truncated form of CKβ8-1; also called CCL23 variant) MLWRRKIGPQMTLSHAAGFHATSADCCISYTPRSIPCSLLESYFETNSECSKPGVIFLTKKGRRFCANPSDKQVQVCMRMLKLDTRIKTRKN", "11 nM"],
  ["MLWRRKIGPQMTLSH [SHAAGtide truncated variant CCXP3 (SEQ ID NO: 3)]", "68 nM"]
]}
